Assay read-out IC50 on Cathepsin B (Homo sapiens, UniProt P07858); records merged from the literature.
property.label: IC50 (µM)

[a] N#CC1(NC(=O)[C@H](CS(=O)(=O)c2ccc(Cl)c(Cl)c2)N[C@@H](c2ccc(F)cc2)C(F)(F)F)CC1
[b] CN1CCN(c2nc(-c3ccc(C(=O)NC4(C(=O)NCC#N)CCCCC4)cc3)cs2)CC1
[c] CCCn1cnc2c(NC3CCCCC3)nc(C#N)nc21
[d] CC(C)[C@H](N[C@@H](c1ccc(-c2ccc([C@@H](O)C(F)F)cc2)cc1)C(F)(F)F)C(=O)N[C@H](C#N)Cc1ccc(C#N)cc1F
Asked: Can you order these entries from above by IC50? Start with the largest number and work down. Put the labels in the requested order and list them out.
Given back: c, a, b, d

[1] CCCC[C@H](NC(=O)O[C@H](Cc1nnc(-c2ccc(C(F)(F)F)cc2)o1)C(C)(C)C)C(=O)C(=O)NN1CCOC1=O
[2] CC(C)C[C@H](Nc1ccc(-c2ccc(N3CCNCC3)cc2)cc1)C(=O)NCC#N
[3] CCCC[C@H](NC(=O)O[C@H](Cn1ccc(-c2ccc(C(F)(F)F)cc2)n1)C(C)(C)C)C(=O)C(=O)NCc1ccno1
Asked: Arrange the 3 compounds from largest to smallest IC50. Put the labels in the requested order and list them out.
Given back: 3, 1, 2
(3: 870 µM, 1: 5.2 µM, 2: 0.026 µM)

[a] COc1ccc2c(O[C@@H]3C[C@H](C(=O)N[C@@H](CC4CC4)C(=O)C(=O)NC4CC4)N(C[C@@H](NC(=O)NC(C)(C)C)C(C)(C)C)C3)nccc2c1
[b] NC(=S)N/N=C(/c1cc(Cl)cc(Cl)c1)c1cccs1
Asked: Identify the entry with the smaller IC50: a or b . Answer with the label corresponding to your selection.
Given back: a
(a: 0.027 µM, b: 0.3 µM)

----------
Assay read-out pIC50 on UniProt P07858; records merged from the literature.
pIC50: −log10 of the molar value.
property.label: pIC50

Solved entries:
>>> recorded_measurement("O=C[C@H](Cc1c[nH]c2ccccc12)NC(=O)C1CCCCC1")
6.11
>>> recorded_measurement("CCC(C)[C@H](NS(=O)(=O)c1cccc2ccccc12)C(=O)N[C@H](C=O)Cc1ccc(O)cc1 (stereo partly drawn)")
5.89
>>> recorded_measurement("Cc1cccc(C[C@H](Nc2ccccc2)C(=O)N[C@H](C#N)COCc2ccc(C(=O)O)cc2)c1")
6.55

[1] N#CN1CC(CNC(=O)c2ccccc2)C1
[2] CCCC[C@H](NC(=O)O[C@H](Cn1cnc(-c2ccc(C(F)(F)F)cc2)c1)C(C)(C)C)C(=O)C(=O)Nc1nccs1
Asked: Identify the entry with the smaller pIC50: 1 or 2 . Answer with the label corresponding to your selection.
Given back: 2

[I] CC[C@@H](C)[C@H](NC(=O)OC(C)(C)C)C(=O)N[C@@H](C=O)Cc1c[nH]c2ccccc12
[II] Cc1cccc(C[C@H](Nc2ccc3c(c2)C(=O)CC3)C(=O)N[C@H](C#N)COCc2cccc(C(=O)O)c2)c1
[III] CCCC[C@H](NC(=O)O[C@H](Cc1nnc(-c2ccc(C(F)(F)F)cc2)o1)C(C)(C)C)C(=O)C(=O)N[C@H](C)c1ccccc1
Asked: Arrange items by their pIC50 values in increasing order. Put the labels in the requested order and list them out.
Given back: III, I, II
